- tested-system: S. aureus Topoisomerase IV (Staphylococcus aureus)
- Construct: purchased Inspiralis (Norwich, UK)
- Sequence (P0C1S7 whole entry): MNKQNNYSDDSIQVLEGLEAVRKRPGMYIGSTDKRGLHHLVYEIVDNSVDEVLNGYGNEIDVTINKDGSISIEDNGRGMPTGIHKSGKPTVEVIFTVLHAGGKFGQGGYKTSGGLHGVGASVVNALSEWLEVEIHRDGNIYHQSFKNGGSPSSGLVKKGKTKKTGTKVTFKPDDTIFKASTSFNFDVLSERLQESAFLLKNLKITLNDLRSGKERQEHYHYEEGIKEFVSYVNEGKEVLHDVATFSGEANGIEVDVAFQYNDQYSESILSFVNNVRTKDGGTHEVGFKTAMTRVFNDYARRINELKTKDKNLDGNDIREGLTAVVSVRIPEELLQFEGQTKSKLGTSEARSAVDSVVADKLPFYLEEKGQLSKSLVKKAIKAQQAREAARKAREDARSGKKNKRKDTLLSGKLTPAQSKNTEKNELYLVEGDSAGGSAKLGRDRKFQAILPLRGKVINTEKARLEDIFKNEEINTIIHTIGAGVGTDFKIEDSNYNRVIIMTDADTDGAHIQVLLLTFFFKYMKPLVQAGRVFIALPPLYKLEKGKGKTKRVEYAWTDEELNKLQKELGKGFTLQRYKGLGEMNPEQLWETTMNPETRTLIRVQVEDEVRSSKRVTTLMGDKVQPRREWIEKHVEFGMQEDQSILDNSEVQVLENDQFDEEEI
- Sequence (P0C1U9 whole entry): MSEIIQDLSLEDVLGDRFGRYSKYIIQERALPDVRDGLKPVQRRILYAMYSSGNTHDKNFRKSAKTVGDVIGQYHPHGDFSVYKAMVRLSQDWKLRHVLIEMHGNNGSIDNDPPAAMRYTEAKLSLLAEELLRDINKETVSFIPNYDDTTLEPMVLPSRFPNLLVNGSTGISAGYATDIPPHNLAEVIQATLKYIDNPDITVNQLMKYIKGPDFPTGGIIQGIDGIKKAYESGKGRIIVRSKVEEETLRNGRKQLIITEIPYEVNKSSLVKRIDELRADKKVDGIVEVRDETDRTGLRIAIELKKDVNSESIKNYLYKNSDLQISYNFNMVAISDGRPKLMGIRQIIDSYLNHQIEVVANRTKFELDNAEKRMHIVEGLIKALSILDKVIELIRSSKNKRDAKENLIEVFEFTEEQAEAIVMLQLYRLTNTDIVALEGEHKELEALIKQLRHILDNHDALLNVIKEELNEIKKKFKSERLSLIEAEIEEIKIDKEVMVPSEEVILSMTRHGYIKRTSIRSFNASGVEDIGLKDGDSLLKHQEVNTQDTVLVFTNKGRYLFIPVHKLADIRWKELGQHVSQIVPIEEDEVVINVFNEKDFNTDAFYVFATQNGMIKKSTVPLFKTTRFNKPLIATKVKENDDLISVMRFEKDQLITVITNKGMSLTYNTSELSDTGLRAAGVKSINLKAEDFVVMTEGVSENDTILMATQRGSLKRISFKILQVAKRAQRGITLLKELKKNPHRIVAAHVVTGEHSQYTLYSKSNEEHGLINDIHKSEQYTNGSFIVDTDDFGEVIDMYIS
- test-name: S. aureus topoisomerase IV decatenation gel assay
- Type: biochemical
- details: average of two replicate experiments; read-out: IC50 S. aureus Topoisomerase IV decatenation (average)
measured-parameter: IC50

Q. Sample Cl.O=c1oc2ccc(F)cc2c2[nH]c(CN[C@H]3CC[C@H](n4c(=O)ccc5ncc(F)cc54)CC3)cc12 — what was its IC50?
A. < 0.1 µM

Q. What does the record list as IC50 for Cl.N#Cc1ccc2ccc(=O)n([C@H]3CC[C@H](NCc4cc5c(=O)oc6ccc(F)cc6c5[nH]4)CC3)c2c1 ?
A. < 0.1 µM

Q. What does the record list as IC50 for COc1cnc2ncc(=O)n([C@H]3CC[C@H](NCc4cc5c(=O)oc6ccc(F)cc6c5[nH]4)CC3)c2c1 ?
A. 0.07 µM

###

- tested-system: S. aureus DNA gyrase (Staphylococcus aureus)
- Construct: purchased Inspiralis (Norwich, UK)
- Sequence (P20831 whole entry): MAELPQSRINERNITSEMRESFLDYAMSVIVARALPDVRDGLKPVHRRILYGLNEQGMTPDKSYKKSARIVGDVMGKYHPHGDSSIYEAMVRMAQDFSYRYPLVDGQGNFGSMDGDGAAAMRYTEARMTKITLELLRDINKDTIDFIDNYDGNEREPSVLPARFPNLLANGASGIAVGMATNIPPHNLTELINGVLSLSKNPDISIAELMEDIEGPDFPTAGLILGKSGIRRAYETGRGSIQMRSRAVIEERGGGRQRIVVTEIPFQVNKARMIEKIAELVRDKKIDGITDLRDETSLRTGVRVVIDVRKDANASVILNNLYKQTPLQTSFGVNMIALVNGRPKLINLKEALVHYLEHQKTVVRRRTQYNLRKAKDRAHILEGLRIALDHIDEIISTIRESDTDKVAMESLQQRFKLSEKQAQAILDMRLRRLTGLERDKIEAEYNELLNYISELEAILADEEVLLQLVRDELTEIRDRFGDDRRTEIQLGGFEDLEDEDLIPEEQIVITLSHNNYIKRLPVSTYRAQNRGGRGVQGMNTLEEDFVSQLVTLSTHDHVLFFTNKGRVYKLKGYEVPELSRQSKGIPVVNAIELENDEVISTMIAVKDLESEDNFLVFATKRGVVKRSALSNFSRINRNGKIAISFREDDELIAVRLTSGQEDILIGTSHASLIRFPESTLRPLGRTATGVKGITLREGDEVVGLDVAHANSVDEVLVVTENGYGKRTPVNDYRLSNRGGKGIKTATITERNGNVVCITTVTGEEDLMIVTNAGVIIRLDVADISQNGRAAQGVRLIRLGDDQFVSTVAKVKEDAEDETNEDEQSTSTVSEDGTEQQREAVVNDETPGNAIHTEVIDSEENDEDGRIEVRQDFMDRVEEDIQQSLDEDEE
- Sequence (P0A0K8 whole entry partner): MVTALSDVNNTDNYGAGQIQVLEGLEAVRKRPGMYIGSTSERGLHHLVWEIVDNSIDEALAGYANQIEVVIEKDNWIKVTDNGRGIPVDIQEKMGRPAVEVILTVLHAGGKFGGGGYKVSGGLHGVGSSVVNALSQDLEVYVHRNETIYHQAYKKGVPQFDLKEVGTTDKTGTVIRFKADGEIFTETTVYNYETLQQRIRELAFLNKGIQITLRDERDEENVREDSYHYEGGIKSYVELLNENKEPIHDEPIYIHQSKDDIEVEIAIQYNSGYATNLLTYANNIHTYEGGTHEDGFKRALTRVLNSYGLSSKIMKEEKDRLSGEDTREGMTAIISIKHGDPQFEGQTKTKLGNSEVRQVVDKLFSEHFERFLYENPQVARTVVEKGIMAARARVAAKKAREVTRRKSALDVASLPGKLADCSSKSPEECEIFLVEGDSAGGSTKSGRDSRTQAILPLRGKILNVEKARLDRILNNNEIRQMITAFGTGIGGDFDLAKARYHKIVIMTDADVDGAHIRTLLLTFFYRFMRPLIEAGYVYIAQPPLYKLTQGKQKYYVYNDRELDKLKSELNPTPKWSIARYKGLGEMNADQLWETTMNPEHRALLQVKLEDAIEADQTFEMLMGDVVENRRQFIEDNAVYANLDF
- test-name: S. aureus DNA gyrase supercoiling gel assay
- Assay type: biochemical
- details: IC50 S. aureus Gyrase Supercoiling (average), average of two replicate experiments
measured-parameter: IC50
Reply with a number, then the unit it belongs to.

Q. Please look up its IC50: O=C1COc2ncc(F)cc2N1[C@H]1CC[C@H](NCc2cc3c(=O)oc4ccc(F)cc4c3[nH]2)CC1 [Compound 1]
A. 280 nM

###

Field: pIC50. Provide a value for each of the molecules that follow.
- tested-system: E. coli DNA gyrase (Escherichia coli)
- Construct: purchased Inspiralis (Norwich, UK)
- test-name: E. coli DNA gyrase supercoiling gel assay
- Format: biochemical
- details: replicate Assay 1; read-out: IC50 E. coli gyrase Supercoiling, Assay 1
Keep in mind that pIC50 stands for -log10 of concentration in molar terms.

Q. What value of pIC50 has been recorded for this entry: O=C1COc2ncc(F)cc2N1[C@H]1CC[C@H](NCc2cc3c(=O)oc4ccc(F)cc4c3[nH]2)CC1
A. 6.47

Q. Item COc1cnc2ncc(=O)n([C@H]3CC[C@H](NCc4cc5c(=O)oc6ccc(F)cc6c5[nH]4)CC3)c2c1 has what recorded pIC50?
A. 7.05

Q. May I ask what pIC50 has been recorded for O=c1oc2ccc(F)cc2c2[nH]c(CN[C@H]3CC[C@H](n4c(=O)cnc5ncc(F)cc54)CC3)cc12 ?
A. 6.82

###

- tested-system: E. coli DNA gyrase (Escherichia coli, UniProt P0AES4)
- Construct: purchased Inspiralis (Norwich, UK)
- Sequence (P0AES4 whole entry): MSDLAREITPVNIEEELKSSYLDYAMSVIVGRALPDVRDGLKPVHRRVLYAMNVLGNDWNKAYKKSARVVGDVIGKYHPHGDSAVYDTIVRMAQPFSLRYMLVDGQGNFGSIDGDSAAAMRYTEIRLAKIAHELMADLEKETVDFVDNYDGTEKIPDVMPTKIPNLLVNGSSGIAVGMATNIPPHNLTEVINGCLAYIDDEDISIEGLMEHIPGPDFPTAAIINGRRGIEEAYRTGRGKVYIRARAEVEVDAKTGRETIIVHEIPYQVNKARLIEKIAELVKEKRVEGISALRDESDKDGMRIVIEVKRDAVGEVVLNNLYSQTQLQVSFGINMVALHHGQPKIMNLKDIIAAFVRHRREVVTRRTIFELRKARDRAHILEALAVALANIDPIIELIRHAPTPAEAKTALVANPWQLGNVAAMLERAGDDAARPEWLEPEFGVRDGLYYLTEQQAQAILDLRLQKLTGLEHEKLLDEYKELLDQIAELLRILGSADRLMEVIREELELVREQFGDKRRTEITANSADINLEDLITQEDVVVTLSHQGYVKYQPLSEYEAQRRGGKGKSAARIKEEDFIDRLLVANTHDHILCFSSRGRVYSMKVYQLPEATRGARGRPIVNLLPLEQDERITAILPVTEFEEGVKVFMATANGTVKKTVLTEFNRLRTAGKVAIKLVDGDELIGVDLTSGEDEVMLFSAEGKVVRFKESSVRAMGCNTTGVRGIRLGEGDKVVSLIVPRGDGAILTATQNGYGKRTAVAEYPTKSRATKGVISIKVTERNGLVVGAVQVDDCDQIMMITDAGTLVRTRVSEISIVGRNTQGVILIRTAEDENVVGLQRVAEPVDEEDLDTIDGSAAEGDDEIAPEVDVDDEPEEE
- test-name: E. coli DNA gyrase supercoiling gel assay
- Type: biochemical
- details: IC50 E. coli Gyrase Supercoiling (average), average of two replicate experiments
For each entry below, report its IC50 value.
Numbers only; they are read as µM.

Q. Give IC50 (E. coli DNA gyrase (Escherichia coli, UniProt P0AES4)) of the following molecule: Cl.N#Cc1ccc2ccc(=O)n([C@H]3CC[C@H](NCc4cc5c(=O)oc6ccc(F)cc6c5[nH]4)CC3)c2c1
A. 0.05

Q. Look up IC50 with E. coli DNA gyrase (Escherichia coli, UniProt P0AES4) for this molecule: Cl.O=c1oc2ccc(F)cc2c2[nH]c(CN[C@H]3CC[C@H](n4c(=O)ccc5ccc(F)cc54)CC3)cc12
A. 0.13

###

- System: E. faecium clinical isolates (n = 12) vanA (6)/vanB (6)
- test-name: MIC, multidrug-resistant clinical isolates
- Assay type: cell-based
- details: Enterococcus faecium
What MIC90 was measured for each of the following?
Lab book: enter the figure in µg/mL, no units written.

Q. Form field: reported MIC90 of Cl.O=c1oc2ccc(F)cc2c2[nH]c(CN[C@H]3CC[C@H](n4c(=O)ccc5ncc(F)cc54)CC3)cc12 [Compound 3]
A. 0.25

Q. Which MIC90 value is on record for Cl.N#Cc1ccc2ccc(=O)n([C@H]3CC[C@H](NCc4cc5c(=O)oc6ccc(F)cc6c5[nH]4)CC3)c2c1 [Compound 2] ?
A. 0.25

Q. Entry COc1cnc2ncc(=O)n([C@H]3CC[C@H](NCc4cc5c(=O)oc6ccc(F)cc6c5[nH]4)CC3)c2c1 [Compound 5] : reported MIC90 = ?
A. 4

Q. What does the record list as MIC90 for O=C1COc2ncc(F)cc2N1[C@H]1CC[C@H](NCc2cc3c(=O)oc4ccc(F)cc4c3[nH]2)CC1 [Compound 1] ?
A. 2

Q. Which MIC90 is reported for this compound? CC(=O)NC[C@H]1CN(c2ccc(N3CCOCC3)c(F)c2)C(=O)O1 [linezolid, reference compound]
A. 2

Q. What value of MIC90 has been reported for the following compound? Cl.O=c1oc2ccc(F)cc2c2[nH]c(CN[C@H]3CC[C@H](n4c(=O)ccc5ccc(F)cc54)CC3)cc12 [Compound 6]
A. 0.25

Q. Look at this compound and give its reported MIC90. O=c1oc2ccc(F)cc2c2[nH]c(CN[C@H]3CC[C@H](n4c(=O)cnc5ncc(F)cc54)CC3)cc12 [Compound 4]
A. 1
